Values compiled from patent EP0063525A1.

Kindly supply the reported Mortalité en 48 h. values for the records listed here.
# System: souris femelles
# run_description: acute toxicity in the mouse, intraperitoneal
# Type: in vivo
# condition_label: voie intrapéritonéale, 500 mg/kg; dead mice of the group
Answers are plain numbers.

Look up Mortalité en 48 h. for the entries below, preserving their order.
1. c1ccc(-c2noc3c2-c2ccccc2Nc2ccccc2-3)cc1
2. CC(CN(C)C)CN1c2ccccc2-c2onc(-c3ccccc3)c2-c2ccccc21 (centres unmarked)
3. CN(C)CCN1c2ccccc2C2C(c3ccccc3)=NN(c3ccccc3)C2c2ccccc21 (centres unmarked)
4. c1ccc(C2=NN(c3ccccc3)C3c4ccccc4Nc4ccccc4C23)cc1 (centres unmarked)
5. CN(C)CCCN1c2ccccc2-c2c(-c3ccccc3)nn(-c3ccccc3)c2-c2ccccc21

[0, 5, 0, 0, 5]

* * *

Kindly supply the reported Mortalité en 1 heure values for the records listed here.
# System: souris femelles
# run_description: acute toxicity in the mouse, intraperitoneal
# Type: in vivo
# condition_label: voie intrapéritonéale, 250 mg/kg; dead mice of the group
Answers are plain numbers.

Worked examples follow.
# molecule, measure, meas_value
data = [
    ("CC(CN(C)C)CN1c2ccccc2-c2onc(-c3ccccc3)c2-c2ccccc21 (centres unmarked) [compound 19]", "Mortalité en 1 heure", 1),
    ("CN(C)CCCN1c2ccccc2-c2c(-c3ccccc3)nn(-c3ccccc3)c2-c2ccccc21 [compound 14]", "Mortalité en 1 heure", 2),
    ("c1ccc(-c2nn(-c3ccccc3)c3c2-c2ccccc2Nc2ccccc2-3)cc1 [compound 12]", "Mortalité en 1 heure", 0),
    ("CN(C)CCCN1c2ccccc2C2ON=C(c3ccccc3)C2c2ccccc21 (centres unmarked) [compound 3]", "Mortalité en 1 heure", 5),
    ("CC(CN(C)C)CN1c2ccccc2-c2c(-c3ccccc3)nn(-c3ccccc3)c2-c2ccccc21 (centres unmarked) [compound 15]", "Mortalité en 1 heure", 2),
]

Look up Mortalité en 1 heure for the entries below, preserving their order.
1. CN(C)CCN1c2ccccc2C2C(c3ccccc3)=NN(c3ccccc3)C2c2ccccc21 (centres unmarked) [compound 7]
2. CN(C)CCCN1c2ccccc2C2C(c3ccccc3)=NN(c3ccccc3)C2c2ccccc21 (centres unmarked) [compound 8]
3. c1ccc(-c2noc3c2-c2ccccc2Nc2ccccc2-3)cc1 [compound 16]

0
0
0

* * *

# Tested on: souris femelles
# run_description: acute toxicity in the mouse, intraperitoneal
# Type: in vivo
# condition_label: voie intrapéritonéale, 250 mg/kg; dead mice of the group
# Source text: Les produits ont été administrés par voie intrapéritonéale à des souris femelles dont le poids variait de 18 à 30 g. Les animaux injectés ont été maintenus dans une salle thermostatée, nourris et abreuvés à volonté. La mortalité a été relevée à 1 heure, 4 heures, 24 heures et 48 heures.
Kindly supply the reported Mortalité en 48 h. values for the records listed here.
Give bare numbers.

# molecule, target_desc, Mortalité en 48 h.
rows = [
    ("CC(CN(C)C)CN1c2ccccc2-c2onc(-c3ccccc3)c2-c2ccccc21 (stereo not drawn)", "souris femelles", 3),
    ("CN(C)CCCN1c2ccccc2-c2c(-c3ccccc3)nn(-c3ccccc3)c2-c2ccccc21", "souris femelles", 4),
    ("CN(C)CCN1c2ccccc2-c2onc(-c3ccccc3)c2-c2ccccc21", "souris femelles", 5),
    ("CN(C)CCCN1c2ccccc2C=Cc2ccccc21 [compound 21, reference compound]", "souris femelles", 5),
    ("c1ccc(-c2noc3c2-c2ccccc2Nc2ccccc2-3)cc1", "souris femelles", 1),
]

Look up Mortalité en 48 h. for the entries below, preserving their order.
1. OCCN1CCN(CCCN2c3ccccc3C3ON=C(c4ccccc4)C3c3ccccc32)CC1 (stereo not drawn)
2. CN(C)CCCN1c2ccccc2-c2onc(-c3ccccc3)c2-c2ccccc21
3. CN(C)CCCN1c2ccccc2C2C(c3ccccc3)=NN(c3ccccc3)C2c2ccccc21 (stereo not drawn)
4. CN(C)CCN1c2ccccc2C2C(c3ccccc3)=NN(c3ccccc3)C2c2ccccc21 (stereo not drawn)

1. 5
2. 5
3. 0
4. 0

* * *

Kindly supply the reported Mortalité en 48 h. values for the records listed here.
# Test system: souris femelles
# run_description: acute toxicity in the mouse, intraperitoneal
# Format: in vivo
# condition_label: voie intrapéritonéale, 200 mg/kg; dead mice of the group
Numbers only.

Worked examples follow.
# compound, meas_value
rows = [
    ("CN(C)CCCN1c2ccccc2C2ON=C(c3ccccc3)C2c2ccccc21 (stereo not drawn)", 2),
    ("CN(C)CCN1c2ccccc2C2ON=C(c3ccccc3)C2c2ccccc21 (stereo not drawn)", 5),
    ("CN(C)CCN1c2ccccc2C=Cc2ccccc21 [compound 20, reference compound]", 5),
    ("OCCN1CCN(CCCN2c3ccccc3C3ON=C(c4ccccc4)C3c3ccccc32)CC1 (stereo not drawn)", 5),
    ("CN(C)CCCN1c2ccccc2-c2onc(-c3ccccc3)c2-c2ccccc21", 5),
]

Lab request: please report Mortalité en 48 h. under test system souris femelles for CN(C)CCN1c2ccccc2-c2onc(-c3ccccc3)c2-c2ccccc21
5

* * *

# run_description: acute toxicity in the mouse, intraperitoneal
# Format: in vivo, Souris
# condition_label: mouse, in vivo, ip; voie intrapéritonéale, 750 mg/kg; read-out: Mortalité %
measure: mortality at 48 h (%)
Numbers only, in %.

# molecule, measure, meas_value
data = [
    ("CN(C)CCN1c2ccccc2-c2c(-c3ccccc3)nn(-c3ccccc3)c2-c2ccccc21 [compound 13]", "mortality at 48 h", 100),
]

Please examine the following record next.
Item c1ccc(C2=NN(c3ccccc3)C3c4ccccc4Nc4ccccc4C23)cc1 (centres unmarked) [compound 6] has what recorded mortality at 48 h?
0

* * *

# Test system: souris femelles
# run_description: acute toxicity in the mouse, intraperitoneal
# Type: in vivo
# condition_label: voie intrapéritonéale, 100 mg/kg; dead mice of the group
# Description: Les produits ont été administrés par voie intrapéritonéale à des souris femelles dont le poids variait de 18 à 30 g. Les animaux injectés ont été maintenus dans une salle thermostatée, nourris et abreuvés à volonté. La mortalité a été relevée à 1 heure, 4 heures, 24 heures et 48 heures.
Kindly supply the reported Mortalité en 1 heure values for the records listed here.
Give bare numbers.

Worked examples follow.
# compound, target_desc, Mortalité en 1 heure
rows = [
    ("CN(C)CCN1c2ccccc2C=Cc2ccccc21 [compound 20, reference compound]", "souris femelles", 3),
    ("CN(C)CCN1c2ccccc2-c2c(-c3ccccc3)nn(-c3ccccc3)c2-c2ccccc21", "souris femelles", 0),
    ("CN(C)CCN1c2ccccc2-c2onc(-c3ccccc3)c2-c2ccccc21", "souris femelles", 0),
]

Look up Mortalité en 1 heure for the entries below, preserving their order.
1. CN(C)CCCN1c2ccccc2C2ON=C(c3ccccc3)C2c2ccccc21 (stereo not drawn)
2. CN(C)CCN1c2ccccc2C2ON=C(c3ccccc3)C2c2ccccc21 (stereo not drawn)
3. CC(CN(C)C)CN1c2ccccc2C=Cc2ccccc21 (stereo not drawn) [compound 22, reference compound]

[0, 3, 4]

* * *

# run_description: acute toxicity in the mouse, intraperitoneal
# Assay type: in vivo, Souris
# condition_label: mouse, in vivo, ip; voie intrapéritonéale, 75 mg/kg; read-out: Mortalité %
measure: mortality at 48 h (%)
Give bare numbers, in %.

# molecule, meas_value
data = [
    ("OCCN1CCN(CCCN2c3ccccc3C3ON=C(c4ccccc4)C3c3ccccc32)CC1 (stereo not drawn)", 20),
    ("CN(C)CCCN1c2ccccc2C=Cc2ccccc21 [compound 21, reference compound]", 0),
]

Please examine the following record next.
Item CN(C)CCN1c2ccccc2C2ON=C(c3ccccc3)C2c2ccccc21 (stereo not drawn) has what recorded mortality at 48 h?
0

* * *

# run_description: acute toxicity in the mouse, intraperitoneal
# Type: in vivo, Souris
# condition_label: mouse, in vivo, ip; souris femelles, voie intrapéritonéale; read-out: DL 50
measure: LD50 at 48 h (mg/kg)
One number for each entry, in mg/kg.

Worked examples follow.
# molecule, units_symbol, LD50 at 48 h
rows = [
    ("CN(C)CCCN1c2ccccc2C=Cc2ccccc21 [compound 21, reference compound]", "mg/kg", 100),
    ("CC(CN(C)C)CN1c2ccccc2C2ON=C(c3ccccc3)C2c2ccccc21 (stereo not drawn)", "mg/kg", 175),
    ("CN(C)CCCN1c2ccccc2-c2c(-c3ccccc3)nn(-c3ccccc3)c2-c2ccccc21", "mg/kg", 200),
    ("CN(C)CCCN1c2ccccc2-c2onc(-c3ccccc3)c2-c2ccccc21", "mg/kg", 225),
    ("OCCN1CCN(CCCN2c3ccccc3C3ON=C(c4ccccc4)C3c3ccccc32)CC1 (stereo not drawn)", "mg/kg", 125),
    ("CN(C)CCCN1c2ccccc2C2ON=C(c3ccccc3)C2c2ccccc21 (stereo not drawn)", "mg/kg", 200),
    ("CC(CN(C)C)CN1c2ccccc2-c2onc(-c3ccccc3)c2-c2ccccc21 (stereo not drawn)", "mg/kg", 175),
]

Item CN(C)CCN1c2ccccc2-c2onc(-c3ccccc3)c2-c2ccccc21 has what recorded LD50 at 48 h?
175
